pIC50: −log10 of the molar value. Structures can show the parent of a compound that is named as a salt.
// values below are pIC50; system is angiotensin-converting enzyme (Oryctolagus cuniculus)
Sequence (P12822 34-1310): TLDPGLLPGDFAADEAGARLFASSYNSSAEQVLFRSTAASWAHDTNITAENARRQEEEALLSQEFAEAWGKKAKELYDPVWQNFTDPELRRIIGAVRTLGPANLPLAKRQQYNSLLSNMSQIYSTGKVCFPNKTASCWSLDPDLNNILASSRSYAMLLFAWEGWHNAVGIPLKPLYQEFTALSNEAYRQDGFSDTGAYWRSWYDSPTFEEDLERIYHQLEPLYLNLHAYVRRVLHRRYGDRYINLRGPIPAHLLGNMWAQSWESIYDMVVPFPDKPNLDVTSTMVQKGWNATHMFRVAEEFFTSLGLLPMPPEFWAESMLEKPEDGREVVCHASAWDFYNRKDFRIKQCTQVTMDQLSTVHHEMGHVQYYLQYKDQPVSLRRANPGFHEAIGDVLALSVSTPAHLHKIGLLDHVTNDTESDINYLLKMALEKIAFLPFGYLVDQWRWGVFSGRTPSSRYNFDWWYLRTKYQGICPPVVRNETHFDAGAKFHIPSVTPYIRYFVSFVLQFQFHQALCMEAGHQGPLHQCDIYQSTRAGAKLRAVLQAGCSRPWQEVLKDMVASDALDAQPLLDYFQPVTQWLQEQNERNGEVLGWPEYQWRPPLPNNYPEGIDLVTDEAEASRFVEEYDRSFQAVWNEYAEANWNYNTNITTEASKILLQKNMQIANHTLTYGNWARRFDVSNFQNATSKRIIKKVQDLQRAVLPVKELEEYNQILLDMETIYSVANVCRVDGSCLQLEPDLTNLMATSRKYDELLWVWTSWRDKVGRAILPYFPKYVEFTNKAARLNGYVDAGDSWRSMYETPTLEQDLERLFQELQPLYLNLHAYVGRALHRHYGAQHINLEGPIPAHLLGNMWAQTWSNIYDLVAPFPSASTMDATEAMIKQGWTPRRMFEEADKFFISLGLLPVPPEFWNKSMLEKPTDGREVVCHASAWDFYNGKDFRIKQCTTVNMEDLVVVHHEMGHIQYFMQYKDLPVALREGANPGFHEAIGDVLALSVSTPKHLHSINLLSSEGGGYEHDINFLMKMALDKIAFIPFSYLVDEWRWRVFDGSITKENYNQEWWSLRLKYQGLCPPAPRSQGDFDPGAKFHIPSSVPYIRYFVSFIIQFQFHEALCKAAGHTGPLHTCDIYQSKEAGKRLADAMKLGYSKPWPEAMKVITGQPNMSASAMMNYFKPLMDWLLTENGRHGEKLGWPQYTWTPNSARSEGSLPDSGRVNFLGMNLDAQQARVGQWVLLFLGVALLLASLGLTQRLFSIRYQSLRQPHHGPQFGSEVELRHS

>  <Compound>
O=C(O)CN1C(=O)[C@@H](N[C@@H](CCc2ccccc2)C(=O)O)CSc2ccccc21 [Example 6]

>  <pIC50>
~8.52

$$$$
>  <Compound>
NCCCCC(N[C@H]1CSc2ccccc2N(CC(=O)O)C1=O)C(=O)O (stereo partly drawn) [Example 14, dihydrochloride]

>  <pIC50>
~7.55

$$$$
>  <Compound>
O=C(O)CN1C(=O)[C@@H](N[C@@H](CCc2ccccc2)C(=O)O)C[S+]([O-])c2ccccc21 (stereo partly drawn) [Example 12]

>  <pIC50>
~8.22

$$$$

Source: patent US4477464A
